target or system: human AspH (His6-AspH315–758) (Homo sapiens)
Construct: N-Terminally His6-tagged human AspH315–758 (His6-AspH315–758) was produced in Escherichia coli BL21 (DE3) cells; made in house; host or cells: Escherichia coli BL21 (DE3), pET-28a(+) vector
assay notes: SPE-MS AspH inhibition assay (hFX-CP101-119 substrate hydroxylation)
Format: biochemical
measurement context: AspH-inhibitor screening, Plate 1-duplicate
measured parameter: Plate 1-duplicate (% inhibition) (%)
Give bare numbers, in %.

- compound: "CCc1cncnc1N1CCN(Cc2nc3ccc(C(F)(F)F)cc3[nH]2)CC1"
  Plate 1-duplicate (% inhibition) (%): -7.38
- compound: "Nc1cccc2c1C(=O)N(C1CCC(=O)NC1=O)C2=O (stereo not shown) [Pomalidomide]"
  Plate 1-duplicate (% inhibition) (%): 1.01
- compound: "COc1cc2c(Oc3ccc(NC(=O)C4(C(=O)Nc5ccc(F)cc5)CC4)cc3F)ccnc2cc1OCCCN1CCOCC1"
  Plate 1-duplicate (% inhibition) (%): -62.78
- compound: "CC(C)C[C@H](NC(=O)[C@@H](COC(C)(C)C)NC(=O)[C@H](Cc1ccc(O)cc1)NC(=O)[C@H](CO)NC(=O)[C@H](Cc1c[nH]c2ccccc12)NC(=O)[C@H](Cc1cnc[nH]1)NC(=O)[C@@H]1CCC(=O)N1)C(=O)N[C@@H](CCCNC(=N)N)C(=O)N1CCC[C@H]1C(=O)NNC(N)=O [Goserelin acetate]"
  Plate 1-duplicate (% inhibition) (%): -15.30
- compound: "Clc1ccc(Nc2nnc(Cc3ccncc3)c3ccccc23)cc1"
  Plate 1-duplicate (% inhibition) (%): 6.67

Give measured Plate 1-duplicate (% inhibition) for every item shown.
1. O=C(O)c1ccc(-c2c[nH]c3ncc(-c4ccccc4)cc23)cc1C1CCCC1
2. O=C(CCCCCCC(=O)Nc1ccc([C@H]2O[C@@H](CSc3nc(-c4ccccc4)c(-c4ccccc4)o3)C[C@@H](c3ccc(CO)cc3)O2)cc1)NO [Tubacin, reference compound]
3. COc1ccc(C2=N[C@@H](c3ccc(Cl)cc3)[C@@H](c3ccc(Cl)cc3)N2C(=O)N2CCNC(=O)C2)c(OC(C)C)c1
4. NC1(c2ccc(-c3nc4ccn5c(=O)[nH]nc5c4cc3-c3ccccc3)cc2)CCC1
5. c1cc(CN2CCCNCCNCCCNCC2)ccc1CN1CCCNCCNCCCNCC1

output:
[56.10, 87.89, -5.84, -13.95, 5.23]

====

target or system: human AspH (His6-AspH315–758) (Homo sapiens, UniProt Q12797)
Construct: N-Terminally His6-tagged human AspH315–758 (His6-AspH315–758) was produced in Escherichia coli BL21 (DE3) cells; made in house; host or cells: Escherichia coli BL21 (DE3), pET-28a(+) vector
assay notes: SPE-MS AspH inhibition assay (hFX-CP101-119 substrate hydroxylation)
Assay type: biochemical
measurement context: AspH-inhibitor screening, 384-well Plate 1, substrate conversion
Where a name gives a salt, the structure may show the parent alone.
For each of the compounds below, state its Plate 1 (% conversion).
Param answer (str): number followed by unit.

Before answering, review these 5 worked examples.
- compound: "CS(=O)(=O)CCNCc1ccc(-c2ccc3ncnc(Nc4ccc(OCc5cccc(F)c5)c(Cl)c4)c3c2)o1 [Lapatinib]"
  Plate 1 (% conversion): "64.49%"
- compound: "CC(C)C[C@H](NC(=O)CNC(=O)c1cc(Cl)ccc1Cl)B1OC(=O)C(CC(=O)O)(CC(=O)O)O1 [Ixazomib citrate]"
  Plate 1 (% conversion): "16.31%"
- compound: "Cn1cc(C2=C(c3cn(C4CCN(Cc5ccccn5)CC4)c4ccccc34)C(=O)NC2=O)c2ccccc21 [Enzastaurin]"
  Plate 1 (% conversion): "51.57%"
- compound: "CCn1c(-c2nonc2N)nc2cnc(Oc3cccc(NC(=O)c4ccc(OCCN5CCOCC5)cc4)c3)cc21 [GSK 269962]"
  Plate 1 (% conversion): "62.40%"
- compound: "Cc1[nH]c2ccccc2c1CCNCc1ccc(/C=C/C(=O)NO)cc1 [Panobinostat]"
  Plate 1 (% conversion): "29.42%"

Give measured Plate 1 (% conversion) for every item shown.
1. CN[C@@H](C)C(=O)N[C@H]1CN(C(=O)CC(C)C)CC[C@H]2CC[C@@H](C(=O)NC(c3ccccc3)c3ccccc3)N2C1=O [AT-406]
2. Clc1ccc(Nc2nnc(Cc3ccncc3)c3ccccc23)cc1 [Vatalanib]
3. NC1(c2ccc(-c3nc4ccn5c(=O)[nH]nc5c4cc3-c3ccccc3)cc2)CCC1 [MK-2206]

output:
48.32%
46.26%
59.58%

Give measured Plate 1 (% conversion) for every item shown.
1. CCCC(CCC)C(=O)O [Valproic acid]
2. COc1ccc(-c2cc3c(C)nc(N)nc3n([C@H]3CC[C@H](OCCO)CC3)c2=O)cn1 [PF-04691502]

output:
["42.13%", "52.79%"]

====

target or system: human AspH (His6-AspH315–758) (Homo sapiens, UniProt Q12797)
Construct: N-Terminally His6-tagged human AspH315–758 (His6-AspH315–758) was produced in Escherichia coli BL21 (DE3) cells; made in house; host or cells: Escherichia coli BL21 (DE3), pET-28a(+) vector
assay notes: SPE-MS AspH inhibition assay (hFX-CP101-119 substrate hydroxylation)
Assay type: biochemical
measurement context: AspH-inhibitor screening, 384-well Plate 1, substrate conversion
For each of the compounds below, state its Plate 1 (% conversion).
One number for each entry, in %.

Before answering, review these 4 worked examples.
- test smiles: "CS(=O)(=O)N1CCN(Cc2cc3nc(-c4cccc5[nH]ncc45)nc(N4CCOCC4)c3s2)CC1"
  unit label: "%"
  Plate 1 (% conversion): 49.12
- test smiles: "C[C@]12C=CC(=O)C=C1CC[C@@H]1[C@@H]2C(=O)C[C@@]2(C)[C@H]1CC[C@]2(O)C(=O)CO"
  unit label: "%"
  Plate 1 (% conversion): 50.82
- test smiles: "CC(=O)Nc1cccc(-n2c(=O)n(C3CC3)c(=O)c3c(Nc4ccc(I)cc4F)n(C)c(=O)c(C)c32)c1"
  unit label: "%"
  Plate 1 (% conversion): 49.92
- test smiles: "COc1cc(Nc2ncc3c(n2)-c2ccc(Cl)cc2C(c2c(F)cccc2OC)=NC3)ccc1C(=O)O"
  unit label: "%"
  Plate 1 (% conversion): 48.78

Give measured Plate 1 (% conversion) for every item shown.
1. CN(C)/N=N/c1[nH]cnc1C(N)=O
2. CNC(=O)c1cc(Oc2ccc(NC(=O)Nc3cc(C(C)(C)C)nn3-c3ccc4ncccc4c3)c(F)c2)ccn1
3. CCCCCCCCCCCCCCCCCCOP(=O)([O-])OC1CC[N+](C)(C)CC1

output:
[49.80, 49.67, 50.29]

====

For each of the compounds below, state its Plate 1-duplicate (% conversion).
target or system: human AspH (His6-AspH315–758) (Homo sapiens, UniProt Q12797)
Construct: N-Terminally His6-tagged human AspH315–758 (His6-AspH315–758) was produced in Escherichia coli BL21 (DE3) cells; made in house; host or cells: Escherichia coli BL21 (DE3), pET-28a(+) vector
Sequence (Q12797 315-758): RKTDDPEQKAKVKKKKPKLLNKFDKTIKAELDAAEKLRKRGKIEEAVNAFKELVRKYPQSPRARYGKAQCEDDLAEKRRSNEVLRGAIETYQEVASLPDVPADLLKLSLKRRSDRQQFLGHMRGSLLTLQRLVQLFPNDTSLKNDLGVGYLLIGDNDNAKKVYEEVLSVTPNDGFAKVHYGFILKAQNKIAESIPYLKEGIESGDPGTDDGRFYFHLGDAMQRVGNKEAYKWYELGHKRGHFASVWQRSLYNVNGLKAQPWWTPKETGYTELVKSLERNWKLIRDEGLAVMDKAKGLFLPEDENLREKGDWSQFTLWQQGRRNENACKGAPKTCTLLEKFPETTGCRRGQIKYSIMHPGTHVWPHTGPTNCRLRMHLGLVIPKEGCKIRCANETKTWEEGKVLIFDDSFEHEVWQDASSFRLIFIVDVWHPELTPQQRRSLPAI
assay notes: SPE-MS AspH inhibition assay (hFX-CP101-119 substrate hydroxylation)
Type: biochemical
measurement context: AspH-inhibitor screening, Plate 1-duplicate, substrate conversion
Answers are plain numbers, in %.

Before answering, review these 4 worked examples.
- compound: "CNC(=O)c1ccccc1Sc1ccc2c(/C=C/c3ccccn3)n[nH]c2c1"
  target or system: "human AspH (His6-AspH315–758) (Homo sapiens, UniProt Q12797)"
  unit label: "%"
  Plate 1-duplicate (% conversion): 52.21
- compound: "CN1CCN(c2nc(C3=C(c4c[nH]c5ccccc45)C(=O)NC3=O)c3ccccc3n2)CC1"
  target or system: "human AspH (His6-AspH315–758) (Homo sapiens, UniProt Q12797)"
  unit label: "%"
  Plate 1-duplicate (% conversion): 46.35
- compound: "C[C@@H](Oc1cc(-c2cnn(C3CCNCC3)c2)cnc1N)c1c(Cl)ccc(F)c1Cl [PF-2341066 (Crizotinib)]"
  target or system: "human AspH (His6-AspH315–758) (Homo sapiens, UniProt Q12797)"
  unit label: "%"
  Plate 1-duplicate (% conversion): 54.51
- compound: "COC(=O)C[C@](O)(CCCC(C)(C)O)C(=O)O[C@@H]1C(OC)=C[C@]23CCCN2CCc2cc4c(cc2[C@H]13)OCO4 [Omacetaxine mepesuccinate]"
  target or system: "human AspH (His6-AspH315–758) (Homo sapiens, UniProt Q12797)"
  unit label: "%"
  Plate 1-duplicate (% conversion): 48.90

Switching to the query record.
input: What Plate 1-duplicate (% conversion) appears in the records for this compound with human AspH (His6-AspH315–758) (Homo sapiens, UniProt Q12797)? CN(C)C(=N)NC(=N)N.Cl [Metformin hydrochloride aq]
output: 48.35

The measured values listed here are drawn from paper PMC7588595.
